Form field: phosphorylation enrichment (one value per entry).
- System: Fer (mouse)
- assay: phosphorylation enrichment, bacterial display (enrichment ratio); higher = better substrate or ligand; peptides without Tyr show the background;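 also: 11-residue human phosphosite peptides and single-mutation variants displayed on the E. coli surface, counted by deep sequencing, each peptide's frequency after selection divided by its frequency in the unselected input library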;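 also: frequency after pTyr selection over input frequency; kinase dosed for 20-30% of maximal phosphorylation in three min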
Keep it simple and answer with nothing but the number.

LIQRNYKLTAQ [ALPK2_Y1975_A1978T] :: 0.393
KSIQLYDTPYE [SHB_Y297_G293S] :: 3.02
EFQLPYFNTVP [BMPR1A_Y457_M460T_YF] :: 0.423
EKLIQYCQSKG [AKR1B1_Y199] :: 0.425
LRLFSYSTTIR [CYP7B1_Y365_S363F] :: 0.457
DSILVYQRKEQ [USH2A_Y1909_G1911R] :: 0.487

Req: Fill: phosphorylation enrichment (Fer (mouse)) for this sequence HEKKAYSFCGT [RPS6KA3_Y226]
Resp: 0.989

Req: Look up Fer (mouse) data: phosphorylation enrichment of KEINDYVEKGT [SERPINA1_Y184_Q180E] , then report it.
Resp: 0.492

Req: Fill in: phosphorylation enrichment on Fer (mouse), entry KPGLVYNKVNP [SPRED3_Y72]
Resp: 0.409

Req: Print Fer (mouse) phosphorylation enrichment for LIDGYYRLTAD [JAK2_Y373] .
Resp: 1.54

---

- study.system: MERTK (UniProt Q12866)
- Sequence (Q12866 whole entry, looked up): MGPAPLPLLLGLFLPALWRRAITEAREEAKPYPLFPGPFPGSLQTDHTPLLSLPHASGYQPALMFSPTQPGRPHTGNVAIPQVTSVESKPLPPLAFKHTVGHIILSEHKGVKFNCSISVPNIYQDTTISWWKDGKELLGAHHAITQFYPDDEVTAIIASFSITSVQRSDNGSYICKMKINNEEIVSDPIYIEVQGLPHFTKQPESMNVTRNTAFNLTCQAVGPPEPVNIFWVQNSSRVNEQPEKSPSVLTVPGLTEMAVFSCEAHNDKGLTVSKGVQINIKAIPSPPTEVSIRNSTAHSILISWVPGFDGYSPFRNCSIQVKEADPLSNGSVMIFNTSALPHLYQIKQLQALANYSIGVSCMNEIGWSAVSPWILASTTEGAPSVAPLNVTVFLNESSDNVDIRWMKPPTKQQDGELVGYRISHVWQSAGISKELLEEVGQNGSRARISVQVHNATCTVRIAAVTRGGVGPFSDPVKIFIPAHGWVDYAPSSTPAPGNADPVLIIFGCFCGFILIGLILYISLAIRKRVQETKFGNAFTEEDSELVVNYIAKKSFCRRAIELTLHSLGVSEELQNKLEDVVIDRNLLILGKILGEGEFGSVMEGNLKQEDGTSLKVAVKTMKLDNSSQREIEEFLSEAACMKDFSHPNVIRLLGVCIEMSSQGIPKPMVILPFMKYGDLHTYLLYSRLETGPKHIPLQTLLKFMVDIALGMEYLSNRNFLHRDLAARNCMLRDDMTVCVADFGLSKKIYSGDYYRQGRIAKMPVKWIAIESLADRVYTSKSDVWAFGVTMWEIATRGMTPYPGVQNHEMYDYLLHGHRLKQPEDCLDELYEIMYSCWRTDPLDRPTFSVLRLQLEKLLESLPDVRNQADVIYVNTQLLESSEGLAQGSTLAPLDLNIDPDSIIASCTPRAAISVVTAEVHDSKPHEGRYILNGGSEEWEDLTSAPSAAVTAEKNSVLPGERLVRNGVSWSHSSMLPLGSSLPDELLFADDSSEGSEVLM
- assay: phosphorylation enrichment, bacterial display (enrichment ratio); higher = better substrate or ligand; peptides without Tyr show the background
Measured phosphorylation enrichment of individual entries
Reply with just the number.

GISDEYHMIRH [GCDH_Y398_V400M] :: 0.349

Req: Please report the measured phosphorylation enrichment for GIPIQYPIISE [NOG_Y222_W217G] tested on MERTK (UniProt Q12866).
Resp: 0.447

Req: Provide phosphorylation enrichment, tested on MERTK (UniProt Q12866), for TSPALYRLDLD [TRIL_Y352_A347T] .
Resp: 0.395

Req: Using MERTK (UniProt Q12866) as the test system, report measured phosphorylation enrichment of PLLLSYFLIKW [NUP160_Y773_YF] .
Resp: 0.558

Req: Write down the reported phosphorylation enrichment (system: MERTK (UniProt Q12866)) of SEKISYVFMKR [SSX7_Y48_L43S_YF]
Resp: 0.378

Req: Fill in phosphorylation enrichment for MHDSNSVSKGS [PDGFRA_Y849_Y849S] tested with MERTK (UniProt Q12866).
Resp: 0.448

Req: Return reported phosphorylation enrichment for target or system MERTK (UniProt Q12866), item VFDHIYTTQSD [RET_Y928_L923V] .
Resp: 0.579

Req: Would you please give the reported phosphorylation enrichment of LARDMHDKEYY [MET_Y1230_Y1230H] with MERTK (UniProt Q12866)?
Resp: 0.404

Req: Provide phosphorylation enrichment, tested on MERTK (UniProt Q12866), for SENFTYIWWLN [PSG4_Y271_K267E_YF] .
Resp: 0.404

---

- Test system: c-Src
- assay: phosphorylation enrichment, bacterial display (enrichment ratio); higher = better substrate or ligand; peptides without Tyr show the background
Below, each entry is listed with its recorded phosphorylation enrichment.
// no unit, no text: just the number

Req: Specify phosphorylation enrichment for NALAQYQEMEK [BBS4_Y395] , system c-Src.
Resp: 0.366

Req: Write down the reported phosphorylation enrichment (system: c-Src) of KLQKYYRQNPD [EHHADH_Y683]
Resp: 0.42

Req: Provide phosphorylation enrichment, tested on c-Src, for FSAPNCCFRCG [PPP2CA_Y265_Y265C_YF] .
Resp: 0.448

Req: Report value only: phosphorylation enrichment, c-Src, RGEKQYLATPL [ALOX12_Y295_A298T]
Resp: 0.812

Req: Provide phosphorylation enrichment, tested on c-Src, for GISDEYHMIRH [GCDH_Y398_V400M] .
Resp: 0.735

Req: Give the observed phosphorylation enrichment of KPLMPYMRFSR [SMARCE1_Y73_YF] for c-Src.
Resp: 0.508

Req: Answer briefly: phosphorylation enrichment recorded on c-Src for MSGDVYSTDFF [NTRK2_Y702_R699G_YF]
Resp: 4.62

Req: # return phosphorylation enrichment for GQKTLYSFFSP [UNG_Y8] , test system: c-Src
Resp: 4.32
